# test-description: Binding affinity to HIV1 wild type [32P]-labeled RRE-2B RNA after 4 hrs by electrophoretic mobility shift assay
# Set-up: species or system Human immunodeficiency virus 1
Side chains are listed from the residue outwards. Peptide text beside a SMILES is read from it. * marks the point of attachment. Benzoyl(4-B(OH)2) = O=C(c1ccc(B(O)O)cc1)*; Acridin9yl = c1ccc2c(*)c3ccccc3nc2c1
recorded-metric: Kd (µM)
# unit: µM | format: bare number

// solved cases for Kd follow
>  <molecule>
CC(C)C[C@H](NC(=O)[C@H](CCCCN)NC(=O)[C@@H](N)CCCCN)C(=O)NCCCC[C@H](NC(=O)[C@H](CC(C)C)NC(=O)[C@H](CCCCN)NC(=O)[C@@H](N)CCCCN)C(=O)N[C@@H](CC(C)C)C(=O)N[C@@H](CCCCN)C(=O)N[C@@H](CCCCNC(=O)c1ccc(B(O)O)cc1)C(=O)N[C@@H](Cc1ccc(O)cc1)C(N)=O (H-KKLK([Leu-Lys-Lys])LKK(Benzoyl(4-B(OH)2))Y-NH2)

>  <Kd (µM)>
0.33

$$$$
>  <molecule>
CC(C)C[C@H](NC(=O)[C@H](CCCCN)NC(=O)[C@@H](N)CCCCN)C(=O)NCCCC[C@H](NC(=O)[C@H](CC(C)C)NC(=O)[C@H](CCCCN)NC(=O)[C@@H](N)CCCCN)C(=O)N[C@@H](CCCCN)C(=O)N[C@@H](CCCCNC(=O)c1ccc(B(O)O)cc1)C(=O)N[C@@H](CCCCNC(=O)c1ccc(B(O)O)cc1)C(=O)N[C@@H](Cc1ccc(O)cc1)C(N)=O (H-KKLK([Leu-Lys-Lys])KK(Benzoyl(4-B(OH)2))K(Benzoyl(4-B(OH)2))Y-NH2)

>  <Kd (µM)>
0.17

$$$$
>  <molecule>
CC(C)C[C@H](NC(=O)[C@@H](N)CC(C)C)C(=O)N[C@@H](CCCCN)C(=O)NCCCC[C@H](NC(=O)[C@H](CCCCN)NC(=O)[C@H](CC(C)C)NC(=O)[C@@H](N)CC(C)C)C(=O)N[C@@H](CCCCN)C(=O)N[C@@H](CCCCNC(=O)c1ccc(B(O)O)cc1)C(=O)N[C@@H](CCCCN)C(=O)N[C@@H](Cc1ccc(O)cc1)C(N)=O (H-LLKK([Lys-Leu-Leu])KK(Benzoyl(4-B(OH)2))KY-NH2)

>  <Kd (µM)>
0.21

$$$$

Consider the record given below.
Problem: Annotate the molecule CC(C)C[C@H](NC(=O)[C@H](CCCCN)NC(=O)[C@H](CCCCNC(=O)[C@H](CCCCN)NC(=O)[C@H](CCCCN)NC(=O)[C@@H](N)CCCCN)NC(=O)[C@H](CCCCN)NC(=O)[C@H](CCCCN)NC(=O)[C@@H](N)CCCCN)C(=O)N[C@@H](CCCCNc1c2ccccc2nc2ccccc12)C(=O)N[C@@H](Cc1ccc(O)cc1)C(N)=O (H-KKKK([Lys-Lys-Lys])KLK(Acridin9yl)Y-NH2) with its measured Kd.
Solution: 0.02
